Measured GI50 of individual entries
- Test system: OVCAR-3
- assay_method_text: NCI tumour cell line growth inhibition, 48 h
The source made the active and inactive calls. Rule as the data show it: active = GI50 up to about 1.1 µM and inactive = higher.

Qu. Name the reported GI50 value associated with the molecule COC(=O)[C@H](Cc1c[nH]c2ccccc12)NC(=O)c1ccc(CNC(=O)/C(C)=C/c2ccccc2)cc1
Ans. 28.6 µM (inactive)

---

- System: SK-MEL-28
- assay_method_text: NCI tumour cell line growth inhibition, 48 h
The source made the active and inactive calls. Cut-off read from the data, not from the text of the source: active = GI50 up to about 1.1 µM and inactive = higher.
Valid outcomes are listed here; reply with one: active, inactive

The following molecules have reported results that may help.
Cc1nc(N)sc1C(=O)/C=C\c1ccc2c(c1)OCO2	inactive
O=c1ccn(Cc2ccccc2CCl)c(=O)[nH]1	inactive
CCN(C(=O)/C=C/c1ccco1)c1ccccc1	inactive
Cc1nnc2c3c(-c4ccccc4)c(-c4ccccc4)oc3nc(N(C)C)n12	inactive
C/C(=N/O)C1CC=C(S(=O)(=O)c2ccccc2)C1 (stereo not drawn)	inactive
COc1cc(OC)c(NC2=NCCO2)cc1Cl	inactive
CCCCCCCCCCNC(=S)OC	inactive
N#CC(NC12CC3CC(CC(C3)C1)C2)c1ccc2c(c1)OCO2 (stereo not drawn)	inactive

Qu. What classification did FC(F)(F)C1(C(F)(F)F)OC(Cl)(Cl)C(Cl)(Cl)O1 end up with in this test?
Ans. inactive

Qu. Any idea what this test logged for O=C1NNC(=O)c2ccccc2SSc2ccccc2C(=O)NNC(=O)c2ccccc2SSc2ccccc21 ?
Ans. inactive

Qu. Test call, this molecule: Cc1cccc(C)c1NC(=O)C(=O)C(C(=O)c1ccccc1-c1ccccc1)C1OC(=O)c2ccccc21 (stereo not drawn)
Ans. inactive

Qu. Assay outcome for Nc1c(-c2ccc(Cl)cc2)[n+]([O-])c2ccccc2[n+]1[O-] : what was it?
Ans. inactive

Qu. What classification did COc1ccc(C2c3cc4c(cc3OC(N3CCOCC3)C2C)OCO4)cc1 (stereo not drawn) end up with in this test?
Ans. inactive

---

Here the recorded GI50 is given for each entry.
- Tested on: SR
- assay_method_text: NCI tumour cell line growth inhibition, 48 h
Calls of active or inactive are those of the source. No stated cut-off is given here; in the data, active = GI50 up to about 1.1 µM and inactive = higher.

O=C1NC2C(CCO)CC=C[C@H]2c2cc3c(cc21)OCO3 (stereo not given in full)	> 100 µM (inactive)
CN(Cc1ccccc1)/C(=N\C#N)N(Cc1ccccc1)Cc1ccccc1	0.0383 µM (active)
COc1ccc(/C(C)=N/NC(=S)N(C)C)c(O)c1	36.3 µM (inactive)
CC(C)(C)C1CCC2c3c([nH]c4ncccc34)C3C(=O)N(c4ccccc4)C(=O)C3C2C1 (stereo not given)	36.1 µM (inactive)
CCOC(=O)C1CSCCSC1	> 100 µM (inactive)
COc1ccc(OC)c(C(=O)c2cccc(C(=O)c3cc(OC)ccc3OC)n2)c1	32.7 µM (inactive)
C=C1CCC([N+](=O)[O-])[C@](C)(N=O)CC[C@@H]2C1CC2(C)C (stereo not given in full)	8.57 µM (inactive)
CCOC(=O)c1cnc2c(ccc3ncccc32)c1OCC	70.6 µM (inactive)

Qu. Recorded GI50 of CCCCCc1c(CCCC)c(O)nc2nc(NC(=O)CCCC)ccc12 , please.
Ans. 51.9 µM (inactive)

Qu. Which value of GI50 has been reported for COc1cc2c(cc1O)[C@@]1(Cc3ccc(OC)c(OC)c3)CCC(=O)N1CC2 in the records?
Ans. 61.8 µM (inactive)

Qu. Quick one: GI50 of C[C@@H](C[C@@H](O)[C@H](O)C(C)(C)O)[C@H]1CC=C2[C@]3(C)[C@H](O)C[C@H]4C(C)(C)[C@H](O)CC[C@]4(C)[C@H]3CC[C@@]21C ?
Ans. 21.9 µM (inactive)

Qu. Please look up its GI50: CN1N=C2NCCNC3=NN(C)/C(=N/CC/N=C/1S2)S3
Ans. > 100 µM (inactive)

---

- Tested on: CAKI-1
- assay_method_text: NCI tumour cell line growth inhibition, 48 h
Activity calls are given as the source filed them. No stated cut-off is given here; in the data, active = GI50 up to about 1.1 µM and inactive = higher.
assay_endpoint: GI50

# annotated cases, reported GI50 shown
O=C(Cn1ccnc1[N+](=O)[O-])NCCO [ETANIDAZOLE]	> 100 µM (inactive)
COc1cc(O)c2c(=O)c3cccc(C)c3[nH]c2c1	> 10 µM (inactive)
CC1(C)C(O)c2ccccc2OC1N1CCN(C2Oc3ccccc3C(O)C2(C)C)CC1 (stereo not given)	> 100 µM (inactive)

Qu. What measured GI50 goes with Nc1nc(O)c(N)c(NCCOCP(=O)(O)O)n1 ?
Ans. > 100 µM (inactive)

Qu. What value of GI50 has been recorded for this entry: CCOC(=O)[C@@]1(C(C)=O)CC(C)=C(C)C[S@@+]1[O-]
Ans. > 100 µM (inactive)

Qu. Which GI50 is reported for this molecule? CC[C@]1(Cc2ccc(OC)c(OC)c2)C=[N+]([O-])O[C@H](OC2CCCC2(c2ccccc2)c2ccccc2)[C@@H]1OC(=O)c1ccccc1 (stereo not given in full)
Ans. > 100 µM (inactive)

Qu. # query: GI50 of entry O=C1C(=O)N(c2ccc(Cl)cc2Cl)C(=O)C(=O)C1c1nc2ccccc2o1
Ans. > 100 µM (inactive)

Qu. State the recorded GI50 for this entry: Cc1ccc2c(ccc3[nH]cc(CNc4ccc(NS(C)(=O)=O)cc4)c32)n1
Ans. 14 µM (inactive)

Qu. Can you share its GI50? I mean this molecule: CNCCN[C@@H]1c2cc3c(cc2[C@@H](c2cc(OC)c(O)c(OC)c2)[C@H]2C(=O)OC[C@@H]21)OCO3
Ans. 0.264 µM (active)

Qu. So what's the measured GI50 for this one? COC(=O)C(C#N)=C1c2ccccc2Oc2ccccc21
Ans. > 100 µM (inactive)

---

- Tested on: UACC-62
- assay_method_text: NCI tumour cell line growth inhibition, 48 h
Activity calls are given as the source filed them. Rule as the data show it: active = GI50 up to about 1.1 µM and inactive = higher.
assay_endpoint: GI50

# count of solved cases: 7
Cc1c(C)n(-c2ccccc2)c2nc([S+](C)[O-])nc([S+](C)[O-])c12 (stereo not drawn)	6.03 µM (inactive)
COC1C(O)C(O[C@H]2CC[C@@]3(C)C(CC[C@@H]4[C@@H]3CC[C@]3(C)[C@@H](C(C)OC5OC(CO)C(O)C(O)C5O)CC[C@]43O)C2)OC(C)C1OC1OC(CO)C(O)C(O)C1O (stereo partly drawn)	> 100 µM (inactive)
C[C@H]1C(=O)C2=C[C@H]1CCC(=O)[C@]1(C)CCCC(C)(C)[C@H]1C[C@H]2O	36.5 µM (inactive)
CN(C)CCCCN1c2ccccc2Sc2ccc(C(=O)c3ccccc3)cc21	2.37 µM (inactive)
c1ccc(/N=C2\c3ccsc3/C(=N/c3ccccc3)c3ccsc32)cc1	1.84 µM (inactive)
O=c1[nH]c(-c2ccccc2)nc2c1sc1nc3ccccc3n12	> 100 µM (inactive)
CC1(C)OC[C@@H]([C@@]2(COC(c3ccccc3)(c3ccccc3)c3ccccc3)CC=CC(=O)O2)O1	28 µM (inactive)

Switching to the query record.
Qu. Give the measured GI50 of Cc1ccc(CC2(OCCN(C)C)CCC(C(C)(C)C)CC2)cc1 (stereo not drawn) .
Ans. 2.15 µM (inactive)

---

- Test system: NCI-H460
- assay_method_text: NCI tumour cell line growth inhibition, 48 h
Activity calls are given as the source filed them. No stated cut-off is given here; in the data, active = GI50 up to about 1.1 µM and inactive = higher.
Hi there, use one of these labels in your reply, thanks! active, inactive

NCCCNCCSP(=O)(O)O	inactive

Qu. Please state the recorded outcome for this compound: CCOC(=O)/C(=C\NC[C@@H](C)O)c1nc2ccccc2[nH]1
Ans. inactive

Qu. What classification did NNC(=O)Cn1ccnn1 end up with in this test?
Ans. inactive

Qu. Hi, sorry to bother you, what did the test record for O=C(NC(=S)NC(=O)c1cc(O)c(O)c(O)c1)c1cc(O)c(O)c(O)c1 ?
Ans. inactive

Qu. Test call for this compound, please: CC(C)(C)c1cc(C(C)(C)C)c(P=C(Cl)Cl)c(C(C)(C)C)c1 (configuration not stated)
Ans. inactive

Qu. Field: outcome | Entry: O=C1C(=O)C(CCCO)(CCCO)CCCCCCCCC1(CCCO)CCCO
Ans. inactive

Qu. Can you look up the reported call for CN(C)CCCCN1c2ccccc2Sc2ccc(C(=O)c3ccccc3)cc21 for me?
Ans. inactive

Qu. Give the logged outcome of this assay for the following compound: CCOC(=O)[C@@]1(C(C)=O)CC(C)=C(C)C[S@@+]1[O-]
Ans. inactive

Qu. Status in this test for CCCC1C(=O)CCc2c(OC)ccc(OC)c21 (configuration not stated) ?
Ans. inactive

Qu. For NNC(=O)c1ccc(-n2nnc(C(=O)NN)c2C(=O)NN)cc1 , which call appears in the assay record?
Ans. inactive

---

- Tested on: EKVX
- assay_method_text: NCI tumour cell line growth inhibition, 48 h
Calls of active or inactive are those of the source. Rule as the data show it: active = GI50 up to about 1.1 µM and inactive = higher.
Measured GI50 of individual entries

Solved cases below.
Cc1cn(CC2=NCCCN2)c(=O)[nH]c1=O	> 100 µM (inactive)
O=c1ccn(Cc2ccccc2CCl)c(=O)[nH]1	25.4 µM (inactive)
CCOC(=O)C1=CC(C)(C(=O)OCC)Nc2c(nc(SC)n(C)c2=O)N1 (stereo unspecified)	> 10 µM (inactive)
CN1N=C2NCCNC3=NN(C)/C(=N/CC/N=C/1S2)S3	> 100 µM (inactive)
CC1=C(c2cc(C(=O)Nc3ccc(Cl)cc3)nc(S)n2)Sc2ccccc2N1	> 100 µM (inactive)

Now look at this one.
Qu. Which value of GI50 has been reported for Nc1ncn2c(n1)nc1ccccc12 in the records?
Ans. 54.8 µM (inactive)
